The values you see were collected from BindingDB's records for PubMed 1352553.

Biological target: Gamma-aminobutyric acid (GABA) B receptor 1 (Rattus norvegicus, UniProt Q6MFX8)
Sequence (Q6MFX8 whole entry): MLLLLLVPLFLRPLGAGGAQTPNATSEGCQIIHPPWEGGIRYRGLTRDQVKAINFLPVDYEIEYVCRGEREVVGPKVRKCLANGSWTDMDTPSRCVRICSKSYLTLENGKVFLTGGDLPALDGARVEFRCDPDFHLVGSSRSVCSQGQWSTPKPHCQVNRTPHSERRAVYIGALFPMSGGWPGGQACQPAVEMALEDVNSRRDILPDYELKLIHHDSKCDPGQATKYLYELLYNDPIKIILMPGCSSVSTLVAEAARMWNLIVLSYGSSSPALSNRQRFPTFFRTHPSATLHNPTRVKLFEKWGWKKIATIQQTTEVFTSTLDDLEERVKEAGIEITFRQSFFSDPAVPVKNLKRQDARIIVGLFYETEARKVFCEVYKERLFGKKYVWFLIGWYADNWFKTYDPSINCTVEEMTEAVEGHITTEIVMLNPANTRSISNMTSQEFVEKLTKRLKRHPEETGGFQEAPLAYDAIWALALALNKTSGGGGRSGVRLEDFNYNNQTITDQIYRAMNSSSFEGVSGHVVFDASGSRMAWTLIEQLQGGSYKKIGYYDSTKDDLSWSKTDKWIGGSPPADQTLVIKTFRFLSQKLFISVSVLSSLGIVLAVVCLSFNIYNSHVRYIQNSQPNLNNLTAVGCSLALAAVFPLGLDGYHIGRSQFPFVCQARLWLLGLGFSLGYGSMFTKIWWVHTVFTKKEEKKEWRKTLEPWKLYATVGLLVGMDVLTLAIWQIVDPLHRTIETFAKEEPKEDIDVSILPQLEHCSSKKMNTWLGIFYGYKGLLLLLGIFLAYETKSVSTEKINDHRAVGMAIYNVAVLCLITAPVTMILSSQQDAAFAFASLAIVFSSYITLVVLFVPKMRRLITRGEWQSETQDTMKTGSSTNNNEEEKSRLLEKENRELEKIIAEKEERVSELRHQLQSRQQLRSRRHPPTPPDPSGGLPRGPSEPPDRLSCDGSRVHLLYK
measured quantity: Ki

Lookup: Query for Gamma-aminobutyric acid (GABA) B receptor 1 (Rattus norvegicus, UniProt Q6MFX8): what Ki does the record show for Oc1cc2c(cc1O)[C@@H]1c3ccccc3CN[C@@H]1CC2 ?
Found: > 10 µM

###

Target: UniProt:P35524
Sequence (P35524 whole entry): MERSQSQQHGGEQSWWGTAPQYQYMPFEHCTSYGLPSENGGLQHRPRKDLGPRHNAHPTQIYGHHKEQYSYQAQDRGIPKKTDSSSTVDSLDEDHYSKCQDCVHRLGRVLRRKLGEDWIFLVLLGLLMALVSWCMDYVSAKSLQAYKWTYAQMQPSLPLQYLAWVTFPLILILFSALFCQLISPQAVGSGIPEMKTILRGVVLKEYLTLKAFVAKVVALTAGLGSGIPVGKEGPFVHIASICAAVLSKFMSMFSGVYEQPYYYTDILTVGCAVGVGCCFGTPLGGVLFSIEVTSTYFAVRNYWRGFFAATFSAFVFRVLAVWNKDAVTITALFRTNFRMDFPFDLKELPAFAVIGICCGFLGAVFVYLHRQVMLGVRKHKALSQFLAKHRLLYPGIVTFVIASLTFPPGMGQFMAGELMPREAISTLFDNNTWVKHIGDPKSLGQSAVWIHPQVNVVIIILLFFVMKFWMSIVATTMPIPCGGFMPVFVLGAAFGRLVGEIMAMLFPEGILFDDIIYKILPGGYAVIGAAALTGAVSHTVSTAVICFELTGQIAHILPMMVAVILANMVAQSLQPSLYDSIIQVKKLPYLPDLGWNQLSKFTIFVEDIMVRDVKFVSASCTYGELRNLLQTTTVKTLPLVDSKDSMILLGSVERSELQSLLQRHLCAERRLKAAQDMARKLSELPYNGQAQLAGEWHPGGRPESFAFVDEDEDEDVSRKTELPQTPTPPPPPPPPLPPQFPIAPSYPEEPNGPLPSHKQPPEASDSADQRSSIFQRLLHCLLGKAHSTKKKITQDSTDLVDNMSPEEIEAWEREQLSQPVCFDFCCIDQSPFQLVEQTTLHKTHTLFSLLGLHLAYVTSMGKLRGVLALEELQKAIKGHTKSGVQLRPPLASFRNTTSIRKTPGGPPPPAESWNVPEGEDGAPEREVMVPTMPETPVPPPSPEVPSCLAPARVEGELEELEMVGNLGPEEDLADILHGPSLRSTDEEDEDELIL
pKi: −log10 of the molar value.
measured quantity: pKi

Lookup: Could you share which pKi value was measured for Oc1cc2c(cc1O)[C@@H]1c3ccccc3CN[C@@H]1CC2 ?
Found: < 5.00
